Target: HLA-A*3301 (human)
Experiment: competition with 125I probe peptide, purified HLA
Details: remark: other sources report otherwise
assay.readout: IC50 (nM)
Give bare numbers, in nM.

**Query** Record request: IC50 value, item SMLEVFEGR [MAGE2.226 9-mer …]
**Result** 9
